protocol notes: Glycomer activity determined as growth inhibition of human glioblastoma LN18 cells
Type: functional, cell-based
run parameters: ln18
measurement kind: pIC50
// pIC50 here means minus log10 of the molar concentration (mol/L)

Solved cases (2 shown):
molecule="C=CCO[C@H]1[C@H](O)[C@H](COS(=O)(=O)c2cccc(C(F)(F)F)c2)O[C@@H](Oc2ccc(I)cc2)[C@H]1OC(=O)CCC (stereo in doubt; 8c)" numeric_value=4.37
molecule="C=CCOC1C(O)C(CNS(=O)(=O)c2cccc(C(F)(F)F)c2)OC(Oc2ccc(I)cc2)C1OC(=O)CCC (stereo in doubt; 17a)" numeric_value=4.60

Read the next record carefully.
Lookup: Give the measured pIC50 of C=CCOC1C(O)C(CNS(=O)(=O)c2cccc(C(F)(F)F)c2)OC(Oc2ccc(I)cc2)C1OC(=O)CCC (stereo in doubt; 10b) .
Found: 5.19
